- system_under_test: T1, Anti-CD28 Fab (SEQ ID NOs: 696, 697)
- T1 construct: In the phage ELISA the Fab was biotinylated and captured on neutravidin coated plates
- experimental_details: phage ELISA; captured anti-CD28 Fab pre-incubated with CD28 antigen as competitor, anti-M13 HRP;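 also: crude clonal phage supernatants added without washing after CD28 pre-incubation, bound phage detected with HRP anti-M13 antibody, reference wells got blocking buffer lacking CD28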
Where no end group is shown, it is not given here.
reported_metric: Anti-CD28 Fab signal in the presence of CD28 (phage binding ELISA)

| binder | value_measured |
| --- | --- |
| YCEGHIPAYMAKCL (cysteine pairing not given here; also: displayed on phage by fusion to pIII, linker and pIII sequence not given here) [Phage-1195] | 0.08 |
| YCEGHSSEYLGKCL (cysteine pairing not given here; also: displayed on phage by fusion to pIII, linker and pIII sequence not given here) [Phage-1199] | 0.09 |
| YCEGHSSAYMRKCL (cysteine pairing not given here; also: displayed on phage by fusion to pIII, linker and pIII sequence not given here) [Phage-1207] | 0.06 |
| YCEGHSVEYILKCL (cysteine pairing not given here; also: displayed on phage by fusion to pIII, linker and pIII sequence not given here) [Phage-1206] | 0.06 |
